Where these numbers come from: PubChem BioAssay (NCI)

system: SK-MEL-5 melanoma; test: NCI tumour cell line growth inhibition, 48 h
measure.name: TGI

| molecule | experimental.value |
| --- | --- |
| C[C@]12[C@@H]3CC[C@H]1[C@@H](O)C(=O)N2CC3 | > 100 µM |
| O=C1OC(c2ccccc2)=N/C1=C\c1ccc([N+](=O)[O-])cc1 | > 100 µM |
| CCOC(=O)c1nnn(CCCCO)c1C(=O)OCC | > 100 µM |
| S=P1(Oc2ccccc2)NNP2(=NP(N3CC3)(N3CC3)=NP(N3CC3)(N3CC3)=N2)NN1 (stereo unspecified) | > 100 µM |
| O=C1c2ccccc2-n2nnnc2C2CSCN12 (stereo unspecified) | > 100 µM |
| OC(c1cc(C(F)(F)F)nc2c(C(F)(F)F)cccc12)C1CCCCN1 (stereo unspecified) | 3.07 µM |
| Cc1nn(C(=O)Cc2ccccc2)c2c1C(c1ccccc1)SC(N)=N2 (stereo unspecified) | > 100 µM |
| O=C(O)CSc1n[nH]c(-c2ccccc2O)n1 | > 100 µM |
| CC1(C)CC(c2c[nH]c3ccccc23)=CC2=Nc3ccccc3C21O (stereo unspecified) | > 100 µM |
| C#Cc1cccc(Nc2nc3cc([N+](=O)[O-])ccc3nc2Nc2ccc(O)cc2)c1 | 3.23 µM |
| COc1ccc(Cn2c(Br)c3c(c2Br)-c2nc(N)sc2CC3)cc1 | 18.7 µM |

====

test system: KM12 colon; assay: NCI tumour cell line growth inhibition, 48 h; in the data active means GI50 below about 0.43 µM; inactive means the rest
Possible outcomes: Y for active, N for inactive

| substance.smiles | test.target | class.assignment |
| --- | --- | --- |
| COC(=O)/C=C/c1cc(OC(C)=O)c2c(c1)[C@@H](C(=O)OC)[C@H](c1ccc(OC(C)=O)c(OC(C)=O)c1)O2 | KM12 colon | Y |
| CN1CCN(c2ccc(Nc3ncc(Cl)c(NC[C@@H]4CCCO4)n3)cc2)CC1 | KM12 colon | Y |
| CC1(C)[C@@H](NOCCCN)CC[C@]2(C)[C@H]3C(=O)C=C4[C@@H]5C[C@](C)(C(=O)O)CC[C@]5(C)CC[C@@]4(C)[C@]3(C)CC[C@@H]12 | KM12 colon | N |
| CCOC(=O)n1cc(C2=C(c3ccc(OC)c(OC)c3)COC2=O)c2ccccc21 | KM12 colon | Y |
| COc1ccccc1NC(=O)c1cc2cc(Br)ccc2cc1O | KM12 colon | N |
| COc1c2ccccc2c(OC)c2[nH]c(=O)ccc12 | KM12 colon | N |

====

test system: MOLT-4 leukemia; experiment: NCI tumour cell line growth inhibition, 48 h; in the data active means GI50 below about 0.43 µM; inactive means the rest
Possible outcomes: active, inactive

| compound | test.target | class.assignment |
| --- | --- | --- |
| C=C1C[C@H](O)[C@H](Br)C(C)(C)[C@@]12CCC(C)=C(Cl)C2 | MOLT-4 leukemia | active |
| O=C(Nc1cccc(C(F)(F)F)c1)Nc1cccc(C(F)(F)F)c1 | MOLT-4 leukemia | inactive |
| CC(C)(C)[Si](C)(C)OC1[C@@H](O[Si](C)(C)C(C)(C)C)[C@@H](CNC(=O)NC(=O)C(F)(F)F)O[C@H]1n1cnc2c(NC(=O)Nc3ccccc3)ncnc21 (stereo partly specified) | MOLT-4 leukemia | inactive |
| Cc1ccc(-c2nc(N3CCNCC3)c3oc(-c4ccc(C)cc4)nc3n2)cc1 | MOLT-4 leukemia | inactive |
| Cc1cc(Nc2ccc(C)c(Cl)c2)n2nc(C(F)(F)F)nc2n1 | MOLT-4 leukemia | inactive |
| CC1(C)[C@@H](NOCCCN)CC[C@]2(C)[C@H]3C(=O)C=C4[C@@H]5C[C@](C)(C(=O)O)CC[C@]5(C)CC[C@@]4(C)[C@]3(C)CC[C@@H]12 | MOLT-4 leukemia | inactive |
| COC(=O)c1cc2oc(/C=C3/SC(=S)N(NC(C)=O)C3=O)cc2n1C | MOLT-4 leukemia | inactive |
| CCNC(=O)C#Cc1ccc2c(C(=Nc3ccc(CN(C)C)cc3)c3ccccc3)c(O)[nH]c2c1 | MOLT-4 leukemia | active |
| CC(C)[C@@H]1NC(=O)[C@]2(C)CSC(=N2)c2ccnc(c2)CNC(=O)C[C@@H](/C=C/CCS)OC1=O | MOLT-4 leukemia | active |
| c1ccc(Nc2ncc(-c3ccccc3)o2)cc1 | MOLT-4 leukemia | inactive |
| Cc1nnc2ccnn2c1C | MOLT-4 leukemia | inactive |
